target: human ether-à-go-go-related gene (hERG) potassium channel (human); assay: primary screen, population patch clamp on CHO cells stably expressing hERG; higher = less effect of the substance;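 further: peak tail current of the secondary pulse compared with the same well before compound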
Sequence (Q12809 whole entry, looked up): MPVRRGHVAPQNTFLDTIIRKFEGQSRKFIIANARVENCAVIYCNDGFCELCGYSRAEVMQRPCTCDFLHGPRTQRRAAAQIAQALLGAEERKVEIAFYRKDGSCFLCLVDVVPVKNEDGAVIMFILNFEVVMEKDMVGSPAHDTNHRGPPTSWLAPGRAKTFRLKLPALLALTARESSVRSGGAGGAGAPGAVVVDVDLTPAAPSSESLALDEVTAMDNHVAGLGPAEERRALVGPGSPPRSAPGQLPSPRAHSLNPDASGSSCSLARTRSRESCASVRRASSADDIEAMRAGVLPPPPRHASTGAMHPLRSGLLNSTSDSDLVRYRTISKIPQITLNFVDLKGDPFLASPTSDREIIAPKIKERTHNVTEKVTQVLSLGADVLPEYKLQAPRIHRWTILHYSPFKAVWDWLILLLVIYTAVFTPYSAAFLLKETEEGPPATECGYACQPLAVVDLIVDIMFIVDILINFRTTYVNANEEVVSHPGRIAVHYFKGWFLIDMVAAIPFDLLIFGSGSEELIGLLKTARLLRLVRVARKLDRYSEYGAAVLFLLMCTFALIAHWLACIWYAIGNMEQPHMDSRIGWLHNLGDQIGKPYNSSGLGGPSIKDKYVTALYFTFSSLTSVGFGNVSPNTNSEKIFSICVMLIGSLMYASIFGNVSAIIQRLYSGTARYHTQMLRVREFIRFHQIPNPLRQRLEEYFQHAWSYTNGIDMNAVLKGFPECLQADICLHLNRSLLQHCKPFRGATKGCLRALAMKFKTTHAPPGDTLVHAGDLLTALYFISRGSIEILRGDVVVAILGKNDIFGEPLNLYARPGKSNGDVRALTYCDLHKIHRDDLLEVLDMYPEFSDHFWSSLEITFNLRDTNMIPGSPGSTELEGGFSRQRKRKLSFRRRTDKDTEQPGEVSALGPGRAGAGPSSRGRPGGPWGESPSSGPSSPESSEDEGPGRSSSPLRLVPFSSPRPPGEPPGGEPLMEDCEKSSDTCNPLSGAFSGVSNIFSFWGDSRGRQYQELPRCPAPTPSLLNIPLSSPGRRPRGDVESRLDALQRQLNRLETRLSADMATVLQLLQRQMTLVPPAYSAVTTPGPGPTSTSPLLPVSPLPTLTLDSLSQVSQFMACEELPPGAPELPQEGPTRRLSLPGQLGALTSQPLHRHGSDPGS
The campaign covered roughly 310,000 compounds. About 14,000 (4.5%) showed an effect of 50% or more. Effects have a minus sign here. For the sample, strong results were picked, then their nearest neighbours and some compounds at random.
Label Y when hERG current change (%, negative = inhibition) at 10uM is at or above 10%; otherwise label N.

Recorded results for 6 compounds are shown here.
# Compound, Label Value
data = [
    ("COc1ccc(S(=O)(=O)NCc2ccccn2)cc1Br", "Y"),
    ("Cc1ccc(NN2C(=O)C=C(c3ccc(Cl)cc3)C2=O)cc1", "Y"),
    ("CCN(CC)C(=O)/C(=C\\c1ccc2c(c1)OCO2)NC(=O)c1ccc(Br)cc1", "N"),
    ("Cc1ccc(C(=O)C(C)OC(=O)Cn2cnc3c2c(=O)n(C)c(=O)n3C)cc1 (stereo not shown)", "N"),
    ("O=C(NCc1ccc2c(c1)OCO2)c1ccc(Br)cc1", "N"),
    ("COc1ccc2oc(C(=O)Nc3nccs3)c(C)c2c1", "Y"),
]

Quick check: does COc1ccc(C(=O)N/C(=C\c2ccc3c(c2)OCO3)C(=O)Nc2ccc(C(=O)O)cc2)cc1 have hERG current change (%, negative = inhibition) at 10uM greater than or equal to 10%?
Y

Quick check: does O=C(NCc1ccco1)C1CCN(S(=O)(=O)N2CCOCC2)CC1 have hERG current change (%, negative = inhibition) at 10uM greater than or equal to 10%?
N

Quick check: does O=C(NCCN1CCOCC1)C1CCN(Cc2ccccc2O)CC1 have hERG current change (%, negative = inhibition) at 10uM greater than or equal to 10%?
Y

Quick check: does COCCNC(=O)c1c(N)n(-c2cccc(C)c2)c2nc3ccccc3nc12 have hERG current change (%, negative = inhibition) at 10uM greater than or equal to 10%?
N
